target: BRM (Homo sapiens); construct: made in house; host or cells: High Five insect cells; assay: ATPase catalytic activity of BRM, ADP-Glo in vitro biochemical assay; details: ATPase catalytic activity, ADP-Glo; 30 nM BRM, 400 μM ATP
Sequence (P51531 whole entry): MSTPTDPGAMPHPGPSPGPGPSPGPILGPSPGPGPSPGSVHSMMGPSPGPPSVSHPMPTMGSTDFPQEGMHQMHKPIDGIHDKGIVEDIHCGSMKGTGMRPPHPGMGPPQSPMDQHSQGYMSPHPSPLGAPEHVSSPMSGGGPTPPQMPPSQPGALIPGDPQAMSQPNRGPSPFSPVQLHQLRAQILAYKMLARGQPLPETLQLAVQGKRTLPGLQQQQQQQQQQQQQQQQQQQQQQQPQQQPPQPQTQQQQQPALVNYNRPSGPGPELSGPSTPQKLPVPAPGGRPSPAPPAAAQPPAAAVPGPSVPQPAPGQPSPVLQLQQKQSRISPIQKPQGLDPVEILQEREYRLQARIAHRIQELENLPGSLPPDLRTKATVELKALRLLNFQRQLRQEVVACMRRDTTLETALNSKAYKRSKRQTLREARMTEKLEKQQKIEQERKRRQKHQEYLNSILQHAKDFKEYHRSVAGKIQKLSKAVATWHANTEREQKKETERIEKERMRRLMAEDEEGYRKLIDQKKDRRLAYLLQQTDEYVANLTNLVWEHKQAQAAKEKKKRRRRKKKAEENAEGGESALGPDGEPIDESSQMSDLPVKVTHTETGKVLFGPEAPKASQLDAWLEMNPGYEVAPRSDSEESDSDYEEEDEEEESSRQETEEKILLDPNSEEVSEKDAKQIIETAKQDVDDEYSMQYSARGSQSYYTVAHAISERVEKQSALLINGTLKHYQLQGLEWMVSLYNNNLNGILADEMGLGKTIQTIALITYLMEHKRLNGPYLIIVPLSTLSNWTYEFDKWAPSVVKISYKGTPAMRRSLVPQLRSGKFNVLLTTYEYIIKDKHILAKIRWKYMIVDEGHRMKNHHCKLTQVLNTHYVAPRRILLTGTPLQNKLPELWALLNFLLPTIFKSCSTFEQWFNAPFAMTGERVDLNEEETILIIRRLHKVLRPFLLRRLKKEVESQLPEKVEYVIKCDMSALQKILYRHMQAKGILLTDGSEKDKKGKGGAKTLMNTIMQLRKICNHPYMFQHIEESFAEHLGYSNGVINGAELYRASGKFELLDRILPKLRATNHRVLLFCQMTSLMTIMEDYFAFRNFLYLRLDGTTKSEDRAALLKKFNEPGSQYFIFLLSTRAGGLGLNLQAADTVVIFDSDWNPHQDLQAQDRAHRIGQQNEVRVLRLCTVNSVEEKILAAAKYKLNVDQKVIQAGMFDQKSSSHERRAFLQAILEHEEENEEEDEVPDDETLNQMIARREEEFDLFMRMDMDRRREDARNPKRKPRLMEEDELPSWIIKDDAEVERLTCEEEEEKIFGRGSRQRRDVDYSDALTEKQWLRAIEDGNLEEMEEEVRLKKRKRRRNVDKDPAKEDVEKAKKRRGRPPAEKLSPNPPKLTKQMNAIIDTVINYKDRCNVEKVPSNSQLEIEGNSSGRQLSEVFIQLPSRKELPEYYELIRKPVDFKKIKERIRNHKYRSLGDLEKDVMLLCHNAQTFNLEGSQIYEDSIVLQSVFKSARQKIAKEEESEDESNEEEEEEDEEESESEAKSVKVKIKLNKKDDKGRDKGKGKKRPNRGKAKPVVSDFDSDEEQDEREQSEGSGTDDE
RESULT_TYPE: IC50 (nM)

Here's what some known entries look like.
- MOLECULE: "O=C(NCc1cc2nc(N3CCOc4cc(Cl)cnc43)ccc2cn1)c1ccc2c(c1)S(=O)(=O)CCOC2"
  SYSTEM_NAME: "BRM (Homo sapiens)"
  IC50 / nM: 9.8
- MOLECULE: "COCCn1ccc2c(-c3ccc4cnc(CNC(=O)c5ccc6c(c5)S(=O)(=O)CCOC6)cc4n3)ccnc21"
  SYSTEM_NAME: "BRM (Homo sapiens)"
  IC50 / nM: 6.6
- MOLECULE: "O=C(NCc1cc2nc(N3CCN(C4CC4)c4cccnc43)ccc2cn1)c1ccc2c(c1)S(=O)(=O)CCOC2"
  SYSTEM_NAME: "BRM (Homo sapiens)"
  IC50 / nM: 14.3
- MOLECULE: "COC[C@H]1C[C@@H](N(C)c2cccc(-c3ccc4cnc(CNC(=O)c5ccc6c(c5)S(=O)(=O)CCOC6)cc4n3)n2)C1"
  SYSTEM_NAME: "BRM (Homo sapiens)"
  IC50 / nM: 15
- MOLECULE: "O=C(NCc1cc2nc(N3CCCc4c(OC(F)F)ccnc43)ccc2cn1)c1ccc2c(c1)S(=O)(=O)CCOC2"
  SYSTEM_NAME: "BRM (Homo sapiens)"
  IC50 / nM: 16.8

(1) CC1Cc2ccc(C(=O)NCc3cc4nc(-c5cccc(N6C[C@@H](C)O[C@@H](C)C6)n5)ccc4cn3)cc2S1(=O)=O (stereo partly drawn)
(2) CO[C@@H]1C[C@H]1N(C)c1cccc(-c2ccc3cnc(CNC(=O)c4ccc5c(c4)S(=O)(=O)CCOC5)cc3n2)n1
(3) COc1cccc2c1CCN2c1ccc2cnc(CNC(=O)c3ccc4c(c3)S(=O)(=O)CCOC4)cc2n1
(4) COC[C@@H]1C[C@@H]1N(C)c1cccc(-c2ccc3cnc(CNC(=O)c4ccc5c(c4)S(=O)(=O)CCOC5)cc3n2)n1
-- ask Order the records so the highest IC50 appears first and the lowest last. Provide the ranking by listing each label in its place in the requested order.
-- reply 3, 1, 4, 2
